B1: CDC25A (parent)
chain: KKFRTKSRTWAGEKSKREMYSRLK

Variants of: B1
Test: protein stability index of a GFP-peptide fusion (GPS, HEK-293T) (PSI 1-6); higher = more stable;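 also: lentivirally expressed fusions sorted by FACS into six bins by GFP to DsRed ratio, PSI derived from sequencing read proportions per bin multiplied by bin number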
Settings: c terminus: a fixed tail appended
Readout Type: protein stability index
Lab note: write the figure by itself, no unit.

Field: example entries. Status: answers known.
T5A: 2.15
T9D: 3.54
F3I: 3.06
R22K: 2.92
E13I: 3.07
F3P: 2.85
E13P: 3.27
R8L: 3.86
R17F: 2.86
K6S: 2.32

Per the record, F3Y has protein stability index of 3

Per the record, K2W has protein stability index of 2.63

Per the record, M19N has protein stability index of 4.2

Per the record, R8H has protein stability index of 2.84

Per the record, E13R has protein stability index of 3.63

Per the record, K16Y has protein stability index of 2.38
